Reported Ki by item:
# subject-of-test: CDK2/Cyclin A2 (Homo sapiens)
# assay-overview: Inhibition of recombinant human full length CDK2/Cyclin A using histone H1 as substrate incubated for 40 mins in presence of [gamma-33P]-ATP by scintillation counting method
Give the quantity in nM, number only.

| chemical-smiles | subject-of-test | Ki / nM |
| --- | --- | --- |
| CNc1nc(C)c(-c2nc(Nc3cc(C)cc(N4CCNCC4)c3)ncc2C#N)s1 | CDK2/Cyclin A2 (Homo sapiens) | 45 |
| CNc1nc(C)c(-c2nc(Nc3cccc(N4CCCCCC4)c3)ncc2C#N)s1 | CDK2/Cyclin A2 (Homo sapiens) | 44 |
| CNc1ncc(-c2ccnc(Nc3cccc(N4CCCNCC4)c3)n2)s1 | CDK2/Cyclin A2 (Homo sapiens) | 22 |
| CNc1nc(C)c(-c2nc(Nc3cc(N4CCN(C(C)=O)CC4)cc(N4CCN(C(C)=O)CC4)c3)ncc2C#N)s1 | CDK2/Cyclin A2 (Homo sapiens) | 248 |
| CNc1nc(C)c(-c2nc(Nc3cccc(N4CCN(C(C)=O)CC4)c3)ncc2C)s1 | CDK2/Cyclin A2 (Homo sapiens) | 794 |

Read the next record carefully.
Measured Ki of CNc1nc(C(F)(F)F)c(-c2ccnc(Nc3cccc(N4CCCNCC4)c3)n2)s1 : 14
